# System: transient receptor potential cation channel C4 beta (TRPC4), mouse
# assay.overview: activators of mouse TRPC4 channel, confirmation, cell-based, second round, Fluo4, HEK293 TRPC4beta/mu-opioid, 1 µM (AID 2461)
# applied.conditions: Fluo4 calcium fluorescence, at 1 µM
The source made the active and inactive calls.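 The calls were made as follows: active = primary screen active and over 50% activation in each of two duplicate runs; inactive = the rest.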
Output constraint: value belongs to 1.0 for active, 0.0 for inactive

*Q* Check the results log: what was the call for COc1ccc(C(CNC(=O)c2cc(SC)ccc2Cl)N(C)C)cc1 (centres undefined) ?
*A* 1.0

*Q* # outcome recorded in this test, key = CN1C2C=C(N(CCc3c[nH]c4ccccc34)C(=O)c3ccc(Cl)cc3)CC1CC2 (centres undefined)
*A* 0.0

*Q* Recorded test call requested for Cc1sc2ncnc(NC3CCN(Cc4ccccc4)CC3)c2c1C
*A* 1.0

*Q* Hi, sorry to bother you, what did the test record for CCOC(=O)C1=NN(C(=O)c2ccc(C)cc2)C(O)(c2ccc(Cl)cc2)C1 (centres undefined) ?
*A* 0.0

*Q* How was Cc1ccc(C2N(c3ccc(Cl)c(Cl)c3)C(=O)C3CCCN32)o1 (centres undefined) classified in this test?
*A* 0.0

*Q* Given COC(=O)c1ccc(N2CCN(C)CC2)c(NC(=O)COc2ccccc2)c1 , state the outcome it received in this test.
*A* 0.0

*Q* // outcome(item) with item = CCOC(=O)C1(CCOc2ccccc2)CCN(Cc2cnc(C)s2)CC1
*A* 0.0

*Q* Per the records of this test, what outcome belongs to CNCCCOc1ccc2c(c1)CCC2 ?
*A* 0.0

*Q* Please state the recorded outcome for this compound: CN(C)C(CNC(=O)c1ccc(C(F)(F)F)cc1)c1ccco1 (centres undefined)
*A* 0.0

*Q* Just curious, what result did CN(C)CCCN(C(=O)c1ccc(S(=O)(=O)N(C)C)cc1)c1nc2ccc(F)cc2s1 get here?
*A* 0.0

*Q* Outcome? O=C(NCCc1ccccn1)C(F)(F)C(F)(F)C(F)(F)C(F)(F)C(F)(F)C(F)F
*A* 0.0

*Q* Which outcome was entered for the compound CCCOc1ccc(C(=O)NNC(=S)NC(=O)c2ccco2)cc1 in this test?
*A* 0.0

*Q* Please state the recorded outcome for this compound: CN(C)C(CNC(=O)C1CCN(S(=O)(=O)c2cccc(C(F)(F)F)c2)CC1)c1ccccc1 (centres undefined)
*A* 0.0

*Q* Test call, this compound: Fc1ccc(C(c2nnnn2Cc2cccs2)N2CCN(C3CCCCC3)CC2)cc1 (centres undefined)
*A* 1.0

*Q* For OC1(c2ccccc2)CN(c2ccccc2)C2=[N+]1CCS2 (centres undefined) , which call appears in the assay record?
*A* 0.0

*Q* What did this assay record as the result for CC1CCCCN1S(=O)(=O)c1ccc(C(=O)N(CCCN(C)C)c2nc3ccc(Br)cc3s2)cc1 (centres undefined) ?
*A* 0.0

*Q* What classification did CCOC(=O)C1(CCc2ccccc2)CCN(Cc2c(O)cccc2OC)CC1 end up with in this test?
*A* 0.0

*Q* Give the logged outcome of this assay for the following compound: CN(C)CCCN(C(=O)c1ccc(S(=O)(=O)N2CCCc3ccccc32)cc1)c1nc2ccc(F)cc2s1
*A* 0.0

*Q* Would you mind telling me which call this test gave Cc1sc2nc(CSc3ccccc3)nc(NCCN(C)C)c2c1C ?
*A* 0.0

*Q* Entry O=C(NCCCN1CCN(CCCNC(=O)c2ccc3c(c2)OCO3)CC1)c1ccc2c(c1)OCO2 : call = ?
*A* 1.0

*Q* Per the assay record, what outcome was assigned to O=C(NC1CC1)C1=C[C@H](C2CCCCC2)C[C@H](OCc2ccc(CO)cc2)O1 ?
*A* 0.0

*Q* In this assay, the call recorded for Cc1cc(C)cc(C(=O)N(CCc2ccccc2)C2=CC3CCC(C2)N3C)c1 (centres undefined) was what?
*A* 1.0

*Q* Any idea what this test logged for CN(C)C(CNC(=O)c1ccc2c(c1)S(=O)(=O)c1ccccc1C2=O)c1ccco1 (centres undefined) ?
*A* 0.0

*Q* Fill in: this test's call for CCCN(CCC)CCNC(=S)Nc1ccc2nc3n(c(=O)c2c1)CCCCC3 is ___
*A* 0.0
